For each record, write down the corresponding composite z-score.
system: Lefty1; assay: Lefty1 binders on small-molecule microarrays, primary screen, biochemical, small-molecule microarray, 635/667 nm fluorescence (AID 1139); conditions: small-molecule microarray binding, fluorescence 635/667; higher = more signal
Numbers only.

The cases that follow already have their composite z-score on record.
{"compound": "COC(=O)C1=CC(CCCO)=CC(c2ccc(CN3CCCC3)cc2)N(Cc2cc3c(cc2Br)OCO3)C=C1C(=O)OC (configuration not stated)", "targetDesc": "Lefty1", "composite z-score": 0.514}
{"compound": "CC(C)C[C@@H]1NC(=O)[C@@]23C(=O)N[C@@H](Cc4ccccc4)C2[C@H](C)[C@@]2(C)O[C@H]2C3/C=C/C/C=C\\CNC(=O)[C@@H](C)NC1=O (some centres not stated)", "targetDesc": "Lefty1", "composite z-score": 0.709}
{"compound": "C=C(COC)/C(=C/C[C@@H](OC(=O)c1ccncc1)c1ccccc1OCCO)c1cc(C(=O)OC)ccc1OC", "targetDesc": "Lefty1", "composite z-score": -0.247}
{"compound": "[N-]=[N+]=NCc1ccccc1[C@H]1OC(c2ccc(OCCCO)cc2)=N[C@@]1(Cc1ccccc1)C(=O)NCCN1CCOCC1", "targetDesc": "Lefty1", "composite z-score": 0.332}
{"compound": "Cc1ccc(S[C@]2(C(=O)NC(C)C)CC(=O)N(C(C)C)[C@@H]2c2ccc(CO)cc2I)cc1", "targetDesc": "Lefty1", "composite z-score": -0.18}

Provide composite z-score values for the following items, in order.
1. CC(C)[C@H]1NC(=O)[C@@]23C(=O)N[C@@H](Cc4ccccc4)C2[C@H](C)[C@@]2(C)O[C@H]2C3/C=C/C/C=C\CNC(=O)[C@H](Cc2ccccc2)NC1=O (some centres not stated)
2. O=C1OCC=C[C@H]2OC34C=CCN(c5ccc6ccccc6c5)C(=O)[C@H]3N(CCCCCO)C(=O)[C@@H]4[C@@H]12 (some centres not stated)

Ans.
[1.57, -1.23]
